This collection of values is drawn from the supplement of paper PMC12494721.

I'd appreciate it if you could supply growth values for the items below.
System: Clostridium sporogenes DSM 1664
Test: growth (OD595) fold change vs plate DMSO controls (fold change (ratio)); higher = more growth
Conditions: 20 µM; incubation time: 27 h, anaerobic, 37 °C
Structures can show the parent of a compound that is named as a salt.
Answers are plain numbers.

Check out these entries, answers already filled in.
| molecule | growth |
| --- | --- |
| N#Cc1sc2c(=O)c3ccccc3c(=O)c=2sc1C#N | 1.14 |
| C[C@@H]1CN([C@H]2CC[C@](C#N)(c3ccc(F)cc3)CC2)CC[C@]1(C(=O)O)c1ccccc1 [Levocabastine hydrochloride] | 1.17 |
| CCN(CC)c1nc(C)cc(OP(=S)(OC)OC)n1 | 1.04 |

Hey, quick one: what's growth for each of these?
1. N#CC(CCc1ccc(Cl)cc1)(Cn1cncn1)c1ccccc1 (centres undefined)
2. CO[C@]12C[C@@H](COC(=O)c3cncc(Br)c3)CN(C)[C@@H]1Cc1cn(C)c3cccc2c13 [Nicergoline]

Completion:
1. 1.11
2. 0.937

Hey, quick one: what's growth for each of these?
1. NCC1(CC(=O)O)CCCCC1 [Gabapentin]
2. CCCCC(C#N)(Cn1cncn1)c1ccc(Cl)cc1 (centres undefined)
3. Fc1ccc([C@]2(Cn3cncn3)O[C@H]2c2ccccc2Cl)cc1 (racemic)
4. O=[N+]([O-])c1cc(C(F)(F)F)c(Cl)c([N+](=O)[O-])c1Nc1ncc(C(F)(F)F)cc1Cl

Completion:
1.14
1.07
0.97
0.825
